Test system: HIV-1IIIB virus
Experiment: Anti-HIV activity: inhibition of HIV-1-induced cytopathic effect in MT-4 cells, MTT colorimetric assay
Format: cell-based
Settings: HIV-1IIIB-infected MT-4 cells, 5 days, MTT; mean ± S.E.M (n = 3)
Measurement label: EmaxAV (maximum antiviral effect %, inhibition of virus-induced CPE)

Examples with answers:
Compound	Measurement
Cc1ccnc2c1NC(=O)c1cccnc1N2C1CC1 [NVP, Nevirapine, reference compound]	72.53 ± 0.47%
Cc1cn([C@H]2C[C@H](N=[N+]=[N-])[C@@H](CO)O2)c(=O)[nH]c1=O [AZT, Zidovudine, reference compound]	83.5 ± 0.57%
Nc1nc(NC2CC2)c2ncn([C@H]3C=C[C@@H](CO)C3)c2n1 [ABC, Abacavir, reference compound]	58.67 ± 0.43%

Now look at this entry.
Task: Please tell me: EmaxAV (maximum antiviral effect %, inhibition of virus-induced CPE) of C[C@H](Cn1cnc2c(N)ncnc21)OCP(=O)(O)O [TDF, Tenofovir, reference compound] , system HIV-1IIIB virus?
Result: 80.55 ± 0.46%
